experimentDescription: in vivo
Parameters: species or system Holstein cows
measurementConditions: female, Holstein, bovine, 150 mg
Numbered stars: 1 amine (or outer) side, 2 acyl side, 3 side chain; on linkers, the order of the positions; unused ones are H or OH. Bridge positions count the residues as written; N and C are the ends. Square brackets hold non-standard residues; d marks the D form. Peptide text beside a SMILES is read from it. Phe(3R-OH) = O=C([C@@H](N[*:1])[C@H](O[*:3])c1ccccc1)[*:2]; Asn(3S-OH) = NC(=O)[C@@H](O)[C@H](N)C(=O)O; Leu(3R-OH) = CC(C)[C@@H](O)[C@H](N)C(=O)O; aThr = C[C@H](O)[C@H](N)C(=O)O
measuredAttribute: half-life

compound | reportedResult
CC[C@H](C)[C@@H]1NC(=O)[C@@H](CCCNC(=N)N)NC(=O)[C@H](CC(C)C)NC(=O)[C@H]([C@H](O)C(C)C)NC(=O)[C@@H](NC(=O)[C@H](CC(C)C)NC(=O)[C@H](N)CC(C)C)[C@@H](c2ccccc2)OC(=O)[C@H](CO)NC(=O)[C@H]([C@H](O)C(N)=O)NC(=O)CNC(=O)[C@H]([C@H](C)O)NC1=O [lysobactin] (H-[dL]L[Phe(3R-OH)][Leu(3R-OH)]L[dR]I[aThr]G[Asn(3S-OH)]S; ester 3-C) | 11.6 h
